Entry source: paper PMC9975633

- ASSAY_TEXT: Bidirectional transport of SKE and RAI in Caco-2 cell monolayer model
- Type: in vitro ADME, human
- EXPERIMENTAL_CONDITIONS: human, Caco-2, ER, in RAI, contents as in 0.05 mg/mL SKE; ER=Papp(B-A)/Papp(A-B)
OBSERVATION_TYPE: efflux ratio at 0.05 mg/mL

>  <CPD_SMILES>
Cc1cc(O)c2c(c1)C(=O)c1cccc(O)c1C2=O

>  <efflux ratio at 0.05 mg/mL>
1.75

$$$$
>  <CPD_SMILES>
O=C(O)c1cc(O)c2c(c1)C(=O)c1cccc(O)c1C2=O

>  <efflux ratio at 0.05 mg/mL>
0.76

$$$$

Let us examine a further case.
Memo: Cc1cc(O)c2c(c1)C(=O)c1cc(O)cc(O)c1C2=O , reported efflux ratio at 0.05 mg/mL: 1.48

###

Consider the following compounds and their measured Papp A→B at 0.05 mg/mL readings.
- ASSAY_TEXT: Bidirectional transport of SKE and RAI in Caco-2 cell monolayer model
- Format: in vitro ADME, human
- EXPERIMENTAL_CONDITIONS: human, Caco-2, Papp(A-B), in SKE, 0.05 mg/mL; Caco-2, AP-BL; mean ± SD, n = 3
API: value field is a number in ×10⁻⁶ cm/s; no unit string.

Example entries begin here.
>  <CPD_SMILES>
Cc1cc(O)c2c(c1)C(=O)c1cccc(O)c1C2=O

>  <Papp A→B at 0.05 mg/mL [×10⁻⁶ cm/s]>
6.87

$$$$
>  <CPD_SMILES>
O=C(O)c1cc(O)c2c(c1)C(=O)c1cccc(O)c1C2=O

>  <Papp A→B at 0.05 mg/mL [×10⁻⁶ cm/s]>
28

$$$$
>  <CPD_SMILES>
O=C1c2cccc(O)c2C(=O)c2c(O)cc(CO)cc21

>  <Papp A→B at 0.05 mg/mL [×10⁻⁶ cm/s]>
19.4

$$$$

Let us examine a further case.
Memo: Cc1cc(O)c2c(c1)C(=O)c1cc(O)cc(O)c1C2=O , reported Papp A→B at 0.05 mg/mL: 6.65

###

Consider the following compounds and their measured efflux ratio at 0.025 mg/mL readings.
- ASSAY_TEXT: Bidirectional transport of SKE and RAI in Caco-2 cell monolayer model
- Assay type: in vitro ADME, human
- EXPERIMENTAL_CONDITIONS: human, Caco-2, ER, in SKE, 0.025 mg/mL; ER=Papp(B-A)/Papp(A-B)
Response field accepts a number only; no unit should be typed.

>  <CPD_SMILES>
O=C(O)c1cc(O)c2c(c1)C(=O)c1cccc(O)c1C2=O

>  <efflux ratio at 0.025 mg/mL>
0.96

$$$$
>  <CPD_SMILES>
Cc1cc(O)c2c(c1)C(=O)c1cccc(O)c1C2=O

>  <efflux ratio at 0.025 mg/mL>
2.22

$$$$

Let us examine a further case.
Memo: Cc1cc(O)c2c(c1)C(=O)c1cc(O)cc(O)c1C2=O , reported efflux ratio at 0.025 mg/mL: 1.6

###

- ASSAY_TEXT: Bidirectional transport of SKE and RAI in Caco-2 cell monolayer model
- Assay type: in vitro ADME, human
- EXPERIMENTAL_CONDITIONS: human, Caco-2, Papp(B-A), in RAI, contents as in 0.1 mg/mL SKE; Caco-2, BL-AP; mean ± SD, n = 3
Consider the following compounds and their measured Papp B→A at 0.1 mg/mL readings.
API: value field is a number in ×10⁻⁶ cm/s; no unit string.

Example entries begin here.
>  <CPD_SMILES>
Cc1cc(O)c2c(c1)C(=O)c1cccc(O)c1C2=O

>  <Papp B→A at 0.1 mg/mL (×10⁻⁶ cm/s)>
13.2

$$$$
>  <CPD_SMILES>
O=C1c2cccc(O)c2C(=O)c2c(O)cc(CO)cc21

>  <Papp B→A at 0.1 mg/mL (×10⁻⁶ cm/s)>
17.3

$$$$
>  <CPD_SMILES>
Cc1cc(O)c2c(c1)C(=O)c1cc(O)cc(O)c1C2=O

>  <Papp B→A at 0.1 mg/mL (×10⁻⁶ cm/s)>
11.8

$$$$

Let us examine a further case.
Memo: O=C(O)c1cc(O)c2c(c1)C(=O)c1cccc(O)c1C2=O , reported Papp B→A at 0.1 mg/mL: 30.1

###

- ASSAY_TEXT: Bidirectional transport of SKE and RAI in Caco-2 cell monolayer model
- Type: in vitro ADME, human
- EXPERIMENTAL_CONDITIONS: human, Caco-2, Papp(B-A), in SKE, 0.1 mg/mL; Caco-2, BL-AP; mean ± SD, n = 3
OBSERVATION_TYPE: Papp B→A at 0.1 mg/mL (×10⁻⁶ cm/s)
API: value field is a number in ×10⁻⁶ cm/s; no unit string.

Example entries begin here.
>  <CPD_SMILES>
Cc1cc(O)c2c(c1)C(=O)c1cc(O)cc(O)c1C2=O

>  <Papp B→A at 0.1 mg/mL / ×10⁻⁶ cm/s>
9.13

$$$$
>  <CPD_SMILES>
O=C(O)c1cc(O)c2c(c1)C(=O)c1cccc(O)c1C2=O

>  <Papp B→A at 0.1 mg/mL / ×10⁻⁶ cm/s>
19.8

$$$$
>  <CPD_SMILES>
O=C1c2cccc(O)c2C(=O)c2c(O)cc(CO)cc21

>  <Papp B→A at 0.1 mg/mL / ×10⁻⁶ cm/s>
19.4

$$$$

Let us examine a further case.
Memo: Cc1cc(O)c2c(c1)C(=O)c1cccc(O)c1C2=O , reported Papp B→A at 0.1 mg/mL: 10.7

###

Consider the following compounds and their measured Papp A→B at 0.05 mg/mL readings.
- ASSAY_TEXT: Bidirectional transport of SKE and RAI in Caco-2 cell monolayer model
- Type: in vitro ADME, human
- EXPERIMENTAL_CONDITIONS: human, Caco-2, Papp(A-B), in RAI, contents as in 0.05 mg/mL SKE; Caco-2, AP-BL; mean ± SD, n = 3
API: value field is a number in ×10⁻⁶ cm/s; no unit string.

Example entries begin here.
>  <CPD_SMILES>
Cc1cc(O)c2c(c1)C(=O)c1cccc(O)c1C2=O

>  <MEASURED_NUMBER>
8.99

$$$$
>  <CPD_SMILES>
Cc1cc(O)c2c(c1)C(=O)c1cc(O)cc(O)c1C2=O

>  <MEASURED_NUMBER>
7.74

$$$$

Memo: O=C1c2cccc(O)c2C(=O)c2c(O)cc(CO)cc21 , reported Papp A→B at 0.05 mg/mL: 15.1

Memo: O=C(O)c1cc(O)c2c(c1)C(=O)c1cccc(O)c1C2=O , reported Papp A→B at 0.05 mg/mL: 35

###

Consider the following molecules and their measured efflux ratio at 0.05 mg/mL readings.
- ASSAY_TEXT: Bidirectional transport of SKE and RAI in Caco-2 cell monolayer model
- Type: in vitro ADME, human
- EXPERIMENTAL_CONDITIONS: human, Caco-2, ER, in SKE, 0.05 mg/mL; ER=Papp(B-A)/Papp(A-B)
Response field accepts a number only; no unit should be typed.

Example entries begin here.
>  <CPD_SMILES>
Cc1cc(O)c2c(c1)C(=O)c1cc(O)cc(O)c1C2=O

>  <efflux ratio at 0.05 mg/mL>
1.59

$$$$
>  <CPD_SMILES>
O=C(O)c1cc(O)c2c(c1)C(=O)c1cccc(O)c1C2=O

>  <efflux ratio at 0.05 mg/mL>
0.73

$$$$

Let us examine a further case.
Memo: Cc1cc(O)c2c(c1)C(=O)c1cccc(O)c1C2=O , reported efflux ratio at 0.05 mg/mL: 2.02

###

- ASSAY_TEXT: Bidirectional transport of SKE and RAI in Caco-2 cell monolayer model
- Format: in vitro ADME, human
- EXPERIMENTAL_CONDITIONS: human, Caco-2, Papp(B-A), in SKE, 0.025 mg/mL; Caco-2, BL-AP; mean ± SD, n = 3
OBSERVATION_TYPE: Papp B→A at 0.025 mg/mL (nm/s)
API: value field is a number in nm/s; no unit string.

Example entries begin here.
>  <COMPOUND>
O=C(O)c1cc(O)c2c(c1)C(=O)c1cccc(O)c1C2=O [Rhein, rhein]

>  <Papp B→A at 0.025 mg/mL / nm/s>
210

$$$$
>  <COMPOUND>
Cc1cc(O)c2c(c1)C(=O)c1cc(O)cc(O)c1C2=O [Emodin, emodin]

>  <Papp B→A at 0.025 mg/mL / nm/s>
119

$$$$
>  <COMPOUND>
O=C1c2cccc(O)c2C(=O)c2c(O)cc(CO)cc21 [Aloe-emodin, aloe-emodin]

>  <Papp B→A at 0.025 mg/mL / nm/s>
240

$$$$

Let us examine a further case.
Memo: Cc1cc(O)c2c(c1)C(=O)c1cccc(O)c1C2=O [Chrysophanol, chrysophanol] , reported Papp B→A at 0.025 mg/mL: 138
